Tested on: LoVo (Colorectal Adenocarcinoma)
assayOverview: Cell viability analysis, colon cancer LoVo
Format: cell-based, human
experimentalParameters: drug 10 μM, 72 hours, WST-1, OD450 nm
# reported cell viability (survival rate), LoVo; entries follow

{"compound": "CN(C)CCCN1c2ccccc2CCc2ccc(Cl)cc21.Cl [Clomipramine HCl (Anafranil)]", "testedOn": "LoVo (Colorectal Adenocarcinoma)", "cell viability (survival rate), LoVo": 87.1}
{"compound": "CC1(C)S[C@@H]2[C@H](NC(=O)[C@H](N)c3ccc(O)cc3)C(=O)N2[C@H]1C(=O)[O-].[Na+] [Amoxicillin sodium (Amox), Amoxicillin sodium]", "testedOn": "LoVo (Colorectal Adenocarcinoma)", "cell viability (survival rate), LoVo": 69.1}
{"compound": "O=C([O-])C(O)[C@H](O)[C@@H](O)[C@H](O)[C@H](O)CO.O=C([O-])C(O)[C@H](O)[C@@H](O)[C@H](O)[C@H](O)CO.[Ca+2] (stereo partly drawn) [Calcium Gluceptate]", "testedOn": "LoVo (Colorectal Adenocarcinoma)", "cell viability (survival rate), LoVo": 55.29}
